The reported measurements were obtained from patent US9777001B2.

Consider the following pKi values measured on human Factor XIa (Homo sapiens).
pKi: −log10 of the molar value. Counter-ions that a name gives are not always drawn.
PARAMETER: pKi

Recorded pKi, per entry:
MOLECULE: C[C@@H]1CCC[C@H](n2cnc(-c3cc(Cl)ccc3-n3cc(C#N)nn3)cc2=O)c2cc(ccn2)-c2cc(F)ccc2NC1=O [Example 148, trifluoroacetate]
REPORTED_MEASUREMENT: 10.00
//
MOLECULE: C[C@@H]1CCC[C@H](n2cnc(-c3cc(Cl)ccc3-n3cc(Cl)nn3)cc2=O)c2cc(ccn2)-c2ccc(O)cc2NC1=O [Example 85, trifluoroacetate]
REPORTED_MEASUREMENT: 10.00

a = C[C@@H]1CCC[C@H](n2cnc(-c3cc(Cl)cc4cnn(C)c34)cc2=O)c2cc(ccn2)-c2ccccc2NC1=O
b = C[C@@H]1CCC[C@H](n2cnc(-c3cc(Cl)ccc3-n3cc(Cl)nn3)cc2=O)c2cc(ccn2)-c2ccccc2NC1=O
Enquiry: Pick one: a or b . Which one has the lower reported pKi? Please reply using the label of the selected record.
Return: a

====

Target: human Factor XIa (Homo sapiens, UniProt P03951)
Sequence (P03951 388-625 limits assumed): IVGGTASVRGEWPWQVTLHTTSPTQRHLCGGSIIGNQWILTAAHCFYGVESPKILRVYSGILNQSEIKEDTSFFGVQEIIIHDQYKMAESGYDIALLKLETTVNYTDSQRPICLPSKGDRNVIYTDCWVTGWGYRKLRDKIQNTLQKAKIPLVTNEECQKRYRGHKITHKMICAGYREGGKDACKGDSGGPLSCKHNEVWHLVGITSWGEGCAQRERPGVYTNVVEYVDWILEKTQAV
Sequence (P03951 19-387 partner limits assumed): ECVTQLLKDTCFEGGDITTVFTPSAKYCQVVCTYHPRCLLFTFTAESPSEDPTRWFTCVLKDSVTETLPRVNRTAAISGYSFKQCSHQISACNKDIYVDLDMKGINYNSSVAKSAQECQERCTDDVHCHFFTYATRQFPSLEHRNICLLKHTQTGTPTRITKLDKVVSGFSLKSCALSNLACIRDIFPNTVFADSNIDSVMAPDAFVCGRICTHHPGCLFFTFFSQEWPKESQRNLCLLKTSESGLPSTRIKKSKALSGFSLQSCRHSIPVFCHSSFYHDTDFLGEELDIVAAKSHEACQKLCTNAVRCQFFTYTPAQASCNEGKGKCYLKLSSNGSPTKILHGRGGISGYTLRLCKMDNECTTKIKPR
Structures can show the parent of a compound that is named as a salt.
PARAMETER: Ki (nM)

COMPOUND: C[C@@H]1CCC[C@H](n2cnc(-c3c(-n4cnnn4)ccc(Cl)c3F)cc2=O)c2cc(ccn2)-c2cc(F)ccc2NC1=O [Example 35, trifluoroacetate]
Ki / nM: 0.1

COMPOUND: C[C@H]1CCC[C@H](n2cnc(-c3cc(Cl)ccc3-n3cc(C(F)(F)F)nn3)cc2=O)c2ccnc(c2)-c2cc(F)ccc2NC1=O [Example 145]
Ki / nM: 1.6

P = C[C@@H]1CCC[C@H](n2cnc(-c3cc(Cl)ccc3-n3cc(C(F)(F)F)nn3)cc2=O)c2cc(ccn2)-c2ccc(C(N)=O)cc2NC1=O [Example 76]
Q = C[C@@H]1CCC[C@H](n2cnc(-c3cc(Cl)ccc3F)cc2=O)c2cc(ccn2)-c2cc(F)ccc2NC1=O [Example 50, trifluoroacetate]
R = C[C@@H]1CCC[C@H](n2cnc(-c3cc(Cl)ccc3-n3cc(C#N)nn3)cc2=O)c2cc(ccn2)-c2ccc(C(F)F)cc2NC1=O [Example 70]
Enquiry: Sort entries by Ki from minimum to maximum value. Labels, requested order.
Return: R, P, Q

1 = C[C@@H]1CCC[C@H](n2cnc(-c3cc(Cl)ccc3-n3cc(C(F)(F)F)nn3)cc2=O)c2cc(ccn2)-c2c(Cl)cccc2NC1=O [Example 105]
2 = C[C@@H]1CCC[C@H](n2cnc(-c3cc(Cl)ccc3-n3cc(C(F)(F)F)nn3)cc2=O)c2cc(ccn2)-c2ccc(CO)cc2NC1=O [Example 37, trifluoroacetate]
3 = COc1ccc(Cl)cc1-c1cc(=O)n([C@H]2CCC[C@@H](C)C(=O)Nc3ccc(F)cc3-c3ccnc2c3)cn1 [Example 150, trifluoroacetate]
Enquiry: Order these by Ki, descending, and give the full ranking. Returns: the labels listed in the requested order.
Return: 3, 1, 2
(3: 310 nM, 1: 0.41 nM, 2: 0.18 nM)

====

Where a name gives a salt, the structure may show the parent alone.
# Ki measurements, system: human Factor XIa (Homo sapiens, UniProt P03951)
PARAMETER: Ki (nM)

COMPOUND: C[C@@H]1CCC[C@H](n2cnc(-c3cc(Cl)ccc3-c3csnn3)cc2=O)c2cc(ccn2)-c2cc(F)ccc2NC1=O [Example 117]
SYSTEM_UNDER_TEST: human Factor XIa (Homo sapiens, UniProt P03951)
READOUT_UNITS: nM
REPORTED_MEASUREMENT: 2.7

COMPOUND: C[C@@H]1CCC[C@H](n2cnc(-c3cc(Cl)ccc3-n3cc(Cl)nn3)cc2=O)c2cc(ccn2)-c2ccc(OC(F)F)cc2NC1=O [Example 93, trifluoroacetate]
SYSTEM_UNDER_TEST: human Factor XIa (Homo sapiens, UniProt P03951)
READOUT_UNITS: nM
REPORTED_MEASUREMENT: 100

COMPOUND: C[C@@H]1CCC[C@H](n2cnc(-c3cc(Cl)ccc3-n3cc(Cl)nn3)cc2=O)c2cc(ccn2)-c2cc(F)ccc2NC1=O [Example 140, trifluoroacetate]
SYSTEM_UNDER_TEST: human Factor XIa (Homo sapiens, UniProt P03951)
READOUT_UNITS: nM
REPORTED_MEASUREMENT: 0.1

COMPOUND: C[C@@H]1CCC[C@H](n2cnc(-c3cc(Cl)ccc3-n3cc(C(F)(F)F)nn3)cc2=O)c2cc(ccn2)-c2ccc(C#N)cc2NC1=O [Example 43, trifluoroacetate]
SYSTEM_UNDER_TEST: human Factor XIa (Homo sapiens, UniProt P03951)
READOUT_UNITS: nM
REPORTED_MEASUREMENT: 3

COMPOUND: C[C@@H]1CCC[C@H](n2cnc(-c3c(-n4cc(Cl)nn4)ccc(Cl)c3F)cc2=O)c2cc(ccn2)-c2cc(F)ccc2NC1=O [Example 142, trifluoroacetate]
SYSTEM_UNDER_TEST: human Factor XIa (Homo sapiens, UniProt P03951)
READOUT_UNITS: nM
REPORTED_MEASUREMENT: 1

A = C[C@@H]1CCC[C@H](n2cnc(-c3cc(Cl)ccc3-n3cc(Cl)nn3)cc2=O)c2cc(ccn2)-c2cc(S(C)(=O)=O)ccc2NC1=O [Example 67]
B = Cc1ccc2c(c1)NC(=O)[C@H](C)CCC[C@H](n1cnc(-c3cc(Cl)ccc3-n3cc(C(F)(F)F)nn3)cc1=O)c1cc-2ccn1 [Example 78]
Enquiry: Hi there! Just curious which has the higher Ki between A and B . Answer format: the label of the selected item.
Return: A
